ENDPOINT_NAME: melting point

The value of melting point measured for the molecule COc1cc(OC)cc([C@@H]2c3[nH]c4cccc(C)c4c3C[C@H]3C(=O)N(C)C(=S)N23)c1 (racemic) turned out to be 279 to 291 °C

The value of melting point measured for the molecule CN1C(=O)[C@@H]2Cc3c([nH]c4ccccc34)[C@@H](c3cc(F)cc(F)c3)N2C1=S turned out to be 308 to 310 °C

The value of melting point measured for the molecule Cc1cc(C)cc([C@@H]2c3[nH]c4ccccc4c3C[C@H]3C(=O)N(C)C(=S)N23)c1 turned out to be 252 to 257 °C

The value of melting point measured for the molecule CN1C(=O)[C@@H]2Cc3c([nH]c4ccccc34)[C@@H](c3cc(Cl)cc(Cl)c3)N2C1=S turned out to be 277 °C

The value of melting point measured for the molecule COc1cc(OC)cc([C@@H]2c3sc4ccccc4c3C[C@H]3C(=O)N(C)C(=S)N23)c1 (racemic) turned out to be 247 to 249 °C

The value of melting point measured for the molecule COc1cc(OC)cc([C@@H]2c3[nH]c4cc(C)ccc4c3C[C@H]3C(=O)N(C)C(=S)N23)c1 (racemic) turned out to be 216 to 218 °C

The value of melting point measured for the molecule COc1cc(OC)cc([C@@H]2c3[nH]c4cc(F)ccc4c3C[C@H]3C(=O)N(C)C(=S)N23)c1 (racemic) turned out to be 199 to 202 °C

Measured values drawn from patent US20080125452A1 for this set.
